# Experiment Notes: Mouse pharmacokinetic study, oral administration
# Assay type: in vivo
# Condition Summary: male, C57BL/6, mouse, plasma, po, 100 mg/kg, plasma, male C57BL/6 mice, oral gavage 100 mg/kg, 0.25 h; read-out: Parent compound concentrations following oral administration, Time 0.25 h
Our labelling divides records by concentration at 0.25 h into ranges: lower: < 5 µg/mL; middle: ≥ 5 µg/mL and < 30 µg/mL; upper: ≥ 30 µg/mL

Illustrative cases are given below, each with its answer.
> print(dat)
                                   compound  class.assignment
1  C=C(CC(=O)OC)C(=O)OC [dimethyl itaconate, reference compound]             lower
2  C=C(CC(=O)OC1C(C)(C)CC1(C)C)C(=O)OCC(=O)O [Example 169]            middle
3  C=C(CC(=O)OCCCCCCCC)C(=O)OCCC(=O)O [Example 80]             lower
4  C=C(CC(=O)O[C@@H](CC)CCCCC)C(=O)OCC(=O)O [Example 170]             upper
5  C=C(CC(=O)OC1CCCCCCC1)C(=O)OCC(=O)O [Example 90]            middle

Prompt: # classify by concentration at 0.25 h band: C=C(CC(=O)OC(C)(C)CCCCC)C(=O)OCC(=O)O [Example 193]
Completion: upper

Prompt: # classify by concentration at 0.25 h band: C=C(CC(=O)O[C@H](C)CCCCCC)C(=O)OCCC(=O)O [Example 88]
Completion: upper

Prompt: # classify by concentration at 0.25 h band: C=C(CC(=O)O[C@H](C)CCCCCC)C(=O)OCc1nn[nH]n1 [Example 161]
Completion: lower

Prompt: # classify by concentration at 0.25 h band: C=C(CC(=O)OCCCOc1ccccc1)C(=O)OCCC(=O)O [Example 86]
Completion: lower

Prompt: # classify by concentration at 0.25 h band: C=C(CC(=O)OC1CCCCCCC1)C(=O)OCCC(=O)O [Example 82]
Completion: middle

Prompt: # classify by concentration at 0.25 h band: C=C(CC(=O)OC(C)(C)CCCCCC)C(=O)OCC(=O)O [Example 192]
Completion: upper

Prompt: # classify by concentration at 0.25 h band: C=C(CC(=O)OC1CCCCCCC1)C(=O)OC(C)c1nnn[nH]1 (stereo not drawn) [Example 133]
Completion: middle

Prompt: # classify by concentration at 0.25 h band: C=C(CC(=O)OC1CC2(CCC2)C1)C(=O)OCC(=O)O [Example 96]
Completion: lower

---

# System: IL-6 cytokine output from THP-1s
# Experiment Notes: THP-1 AlphaLISA IL-6 cytokine assay
# Assay type: cell-based, human
# Condition Summary: Homo sapiens; PMA-differentiated THP-1 cells, LPS 24 hr then Nigericin 1 hour
Structures can show the parent of a compound that is named as a salt.
Test Readout: log10 of IC50 (log10 of the value in µM)
Hi team, quick reminder: these entries are log10 of IC50 (µM).

Worked cases, log10 of IC50 given:
> print(dat)
                                   compound  measurement
1  C=C(CC(=O)OCCCCCCCC)C(=O)OCCS(=O)(=O)N(C)C [Example 16]         0.04
2  C=C(CC(=O)OCCCCCCCC)C(=O)OCC(=O)N(C)CC(=O)O [Example 98]         0.63
3  C=C(CC(=O)OCCCCCCCC)C(=O)O[C@H]1CCOC1 [Example 23]         0.65
4  COC(=O)/C=C/C(=O)OC [dimethyl fumarate, reference compound]         0.97

Moving on to another compound below.
Prompt: Please respond with reported log10 of IC50 (system IL-6 cytokine output from THP-1s) for C=C(CC(=O)OCCCCCCCC)C(=O)OCC(C)OC (centres unmarked) [Example 33] .
Completion: 1.07
